- tested-system: human mGlu2 receptor (Homo sapiens, UniProt Q14416)
- Construct: expressed in transfected cells; host or cells: CHO cells
- Sequence (Q14416 19-872): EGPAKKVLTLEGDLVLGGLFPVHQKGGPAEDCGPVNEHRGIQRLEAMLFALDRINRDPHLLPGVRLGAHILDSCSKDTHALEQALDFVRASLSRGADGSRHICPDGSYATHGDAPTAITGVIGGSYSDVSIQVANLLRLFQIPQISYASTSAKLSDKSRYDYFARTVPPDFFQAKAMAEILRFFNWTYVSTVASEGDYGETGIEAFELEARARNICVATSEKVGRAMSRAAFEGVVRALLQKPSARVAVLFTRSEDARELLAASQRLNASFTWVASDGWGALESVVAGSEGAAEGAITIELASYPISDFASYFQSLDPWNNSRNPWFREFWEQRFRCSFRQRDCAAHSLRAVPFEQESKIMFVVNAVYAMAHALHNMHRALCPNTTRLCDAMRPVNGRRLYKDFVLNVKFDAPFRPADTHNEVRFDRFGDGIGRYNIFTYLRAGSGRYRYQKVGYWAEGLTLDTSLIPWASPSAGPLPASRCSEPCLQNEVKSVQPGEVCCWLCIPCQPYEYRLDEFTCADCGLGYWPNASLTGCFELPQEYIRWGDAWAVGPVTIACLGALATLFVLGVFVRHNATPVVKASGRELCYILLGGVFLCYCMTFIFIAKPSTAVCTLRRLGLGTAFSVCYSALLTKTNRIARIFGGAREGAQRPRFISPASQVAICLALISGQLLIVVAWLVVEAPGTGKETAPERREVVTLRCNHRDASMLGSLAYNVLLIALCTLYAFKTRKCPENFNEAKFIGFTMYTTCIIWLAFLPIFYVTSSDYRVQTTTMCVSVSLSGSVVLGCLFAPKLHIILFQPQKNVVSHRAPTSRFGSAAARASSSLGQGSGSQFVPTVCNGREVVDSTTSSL
- assay-name: [35S]GTPγS binding assay (mGluR2 negative allosteric modulation, glutamate ~EC80 60 μM)
- Type: biochemical
- measurement-setup: membranes from CHO cells transfected with human mGlu2 receptor; glutamate ~EC80 (60 μM); pIC50 = −log IC50 (M); read-out: GTPγS-hmGluR2 anGT pIC50 (converted)
- Method: 1) [^35S]GTPγS Binding Assay [^35S]GTPγS Binding Assay Total reaction volume was 200 μl. […] Membrane-bound radioactivity was counted in a Topcount.
property-measured: log10 of IC50 (log10 of the value in M)
Annotation: log10 of IC50, M basis.

                                   compound                             tested_system  recorded_number
0  COc1c(F)cccc1C(=O)Nc1cnn2c1C(=O)N(c1ccc(C(F)(F)F)cc1)C[C@@H]2C [Co. No. 19]  human mGlu2 receptor (Homo sapiens, UniProt Q14416)            -8.36
1  C[C@H]1CN(c2ccc(C(F)(F)F)cc2)C(=O)c2c(NC(=O)c3cccc(O)c3)cnn21 [Co. No. 144]  human mGlu2 receptor (Homo sapiens, UniProt Q14416)            -8.69
2  Cc1cc(N2C[C@H](C)n3ncc(NC(=O)c4ccc(N)nc4)c3C2=O)ccc1C(F)(F)F [Co. No. 4]  human mGlu2 receptor (Homo sapiens, UniProt Q14416)            -8.78
3  C[C@H]1CN(c2ccc(C(F)(F)F)cc2)C(=O)c2c(NC(=O)c3cccnc3N)cnn21 [Co. No. 189]  human mGlu2 receptor (Homo sapiens, UniProt Q14416)            -8.74
4  C[C@H]1CN(c2ccc(C(F)(F)F)c(F)c2)C(=O)c2c(NC(=O)c3cccnc3)cnn21 [Co. No. 126]  human mGlu2 receptor (Homo sapiens, UniProt Q14416)            -8.38

Consider the following items and state reported log10 of IC50 for each.
1. Cc1cccc(C(=O)Nc2cnn3c2C(=O)N(c2ccc(C(F)(F)F)cc2)C[C@@H]3C)c1 [Co. No. 9]
2. C[C@H]1CN(c2ccc(C(F)(F)F)cc2)C(=O)c2c(NC(=O)c3ccc(O)nn3)cnn21 [Co. No. 92]
3. COc1cncc(C(=O)Nc2cnn3c2C(=O)N(c2ccc(C(F)(F)F)c(Cl)c2)C[C@@H]3C)c1 [Co. No. 150]

1. -8.61
2. -5.90
3. -8.78

* * *

For each entry below, report its IC50 value.
- tested-system: human mGlu2 receptor (Homo sapiens, UniProt Q14416)
- Construct: expressed in transfected cells; host or cells: CHO cells
- assay-name: [35S]GTPγS binding assay (mGluR2 negative allosteric modulation, glutamate ~EC80 60 μM)
- Type: biochemical
- measurement-setup: membranes from CHO cells transfected with human mGlu2 receptor; glutamate ~EC80 (60 μM); pIC50 = −log IC50 (M); read-out: GTPγS-hmGluR2 anGT pIC50 (converted)
One number for each entry, in M.

# count of solved cases: 5
                                   compound  recorded_number
0  Cc1cc(C(=O)Nc2cnn3c2C(=O)N(c2ccc(C(F)(F)F)c(Cl)c2)C[C@@H]3C)cc(Cl)n1 [Co. No. 142]         2.45e-09
1  C[C@H]1CN(c2ccc(C(F)(F)F)cc2)C(=O)c2c(NC(=O)c3nccnc3N)cnn21 [Co. No. 206]         3.02e-09
2  COc1cc(N2C[C@H](C)n3ncc(NC(=O)c4cncc(C)c4)c3C2=O)ccc1C(F)(F)F [Co. No. 117]         8.51e-09
3  Cc1cccc(C(=O)Nc2cnn3c2C(=O)N(c2ccc(C(F)(F)F)cc2)C[C@@H]3C)n1 [Co. No. 34]         8.32e-09
4  COc1ccccc1C(=O)Nc1cnn2c1C(=O)N(c1ccc(C(F)(F)F)c(OC)n1)C[C@@H]2C [Co. No. 75]         5.37e-08

# return IC50 for each item in the list
1. Cc1cc(N2C[C@H](C)n3ncc(NC(=O)c4cccnc4N)c3C2=O)ccc1C(F)(F)F [Co. No. 184]
2. Cc1nccc(C(=O)Nc2cnn3c2C(=O)N(c2ccc(C(F)(F)F)cc2)C[C@@H]3C)c1C [Co. No. 156]

1.23e-09
2.4e-08

* * *

- tested-system: human mGlu2 receptor (Homo sapiens, UniProt Q14416)
- Construct: expressed in transfected cells; host or cells: CHO cells
- assay-name: [35S]GTPγS binding assay (mGluR2 negative allosteric modulation, glutamate ~EC80 60 μM)
- Assay type: biochemical
- measurement-setup: GTPγS-hmGluR2 anGT pIC50, membranes from CHO cells transfected with human mGlu2 receptor; glutamate ~EC80 (60 μM); pIC50 = −log IC50 (M)
- Method: 1) [^35S]GTPγS Binding Assay [^35S]GTPγS Binding Assay Total reaction volume was 200 μl. […] Membrane-bound radioactivity was counted in a Topcount.
Please provide measured IC50 for the entries that follow.
Give bare numbers, in M.

>>> print(df.to_string())
                                smiles_data                             tested_system  unit  recorded_number
0  C[C@H]1CN(c2ccc(C(F)(F)F)cc2)C(=O)c2c(NC(=O)c3ccc(S(=O)(=O)F)cc3)cnn21  human mGlu2 receptor (Homo sapiens, UniProt Q14416)     M         4.37e-08

Next:
Name the reported IC50 value associated with the compound C[C@H]1CN(c2ccc(C(F)(F)F)cc2)C(=O)c2c(NC(=O)c3cccc(S(=O)(=O)F)c3)cnn21 1.07e-08

* * *

- tested-system: human mGlu2 receptor (Homo sapiens)
- Construct: expressed in transfected cells; host or cells: CHO cells
- assay-name: [35S]GTPγS binding assay (mGluR2 negative allosteric modulation, glutamate ~EC80 60 μM)
- Type: biochemical
- measurement-setup: maximal % inhibition relative to the control glutamate response (EC80 glutamate); read-out: GTPγS-hmGluR2 anGT Emax
- Procedure: 1) [^35S]GTPγS Binding Assay [^35S]GTPγS Binding Assay Total reaction volume was 200 μl. […] Membrane-bound radioactivity was counted in a Topcount.
property-measured: Emax (%)
Give bare numbers, in %.

>>> print(df.to_string())
                                   compound                        tested_system  recorded_number
0  C[C@H]1CN(c2ccc(C(F)(F)F)cc2)C(=O)c2c(NC(=O)c3cccnc3N)cnn21 [Co. No. 189]  human mGlu2 receptor (Homo sapiens)              109

Provide Emax for all items below, preserving their order.
1. C[C@H]1CN(c2ccc(C(F)(F)F)cc2)C(=O)c2c(NC(=O)c3ccc(N)cc3)cnn21 [Co. No. 204]
2. C[C@H]1CN(c2ccc(C(F)(F)F)cc2)C(=O)c2c(NC(=O)c3ncccc3F)cnn21 [Co. No. 67]
3. Cc1cc(C(=O)Nc2cnn3c2C(=O)N(c2ccc(C(F)(F)F)cc2)C[C@@H]3C)on1 [Co. No. 71]
4. C[C@H]1CN(c2ccc(C(F)(F)F)c(F)c2)C(=O)c2c(NC(=O)c3cnccn3)cnn21 [Co. No. 127]
5. C[C@H]1CN(c2ccc(C(F)(F)F)cc2)C(=O)c2c(NC(=O)c3ccc(Cl)cn3)cnn21 [Co. No. 46]
6. COc1ccc(C(=O)Nc2cnn3c2C(=O)N(c2ccc(C(F)(F)F)c(OC)n2)C[C@@H]3C)cc1 [Co. No. 77]

1: 107; 2: 102; 3: 97; 4: 104; 5: 104; 6: 103

* * *

- tested-system: human mGlu2 receptor (Homo sapiens)
- Construct: expressed in transfected cells; host or cells: CHO cells
- assay-name: [35S]GTPγS binding assay (mGluR2 negative allosteric modulation, glutamate ~EC80 60 μM)
- Assay type: biochemical
- measurement-setup: membranes from CHO cells transfected with human mGlu2 receptor; glutamate ~EC80 (60 μM); pIC50 = −log IC50 (M); read-out: GTPγS-hmGluR2 anGT pIC50 (converted)
- Experimental: 1) [^35S]GTPγS Binding Assay [^35S]GTPγS Binding Assay Total reaction volume was 200 μl. […] Membrane-bound radioactivity was counted in a Topcount.
Could you please report measured IC50 for the items listed next?
Numbers only, in M.

>>> print(df.to_string())
                                   compound                        tested_system  recorded_number
0  COc1cccc(C(=O)Nc2cnn3c2C(=O)N(c2ccc(C(F)(F)F)cc2)C[C@@H]3C)n1 [Co. No. 21]  human mGlu2 receptor (Homo sapiens)         4.68e-09
1  COc1cncc(C(=O)Nc2cnn3c2C(=O)N(c2ccc(Cl)c(Cl)c2)C[C@@H]3C)c1 [Co. No. 149]  human mGlu2 receptor (Homo sapiens)         1.66e-09

Provide each entry's IC50 from the list below.
1. C[C@H]1CN(c2ccc(C(F)(F)F)cc2)C(=O)c2c(NC(=O)c3cn[nH]c3)cnn21 [Co. No. 79]
2. C[C@H]1CN(c2ccc(C(F)(F)F)cc2)C(=O)c2c(NC(=O)c3ccc(N)cn3)cnn21 [Co. No. 68]

8.51e-08
2.82e-08

Where do these numbers come from? They come from patent US10519162B2.
